assay: in vivo; settings: male, SD, rat, conjunctiva, topical or ocular, 16 ug
MEASUREMENT TYPE: Cmax

Record CCCCCCCCOc1ccccc1COc1ccsc1C(=O)Nc1cccnc1 [14l] , field Cmax: 358 ng/g

====

The following molecules have recorded pIC50 on human SMS1 (Homo sapiens).
Just the number, please; pIC50 means minus log10 of the concentration in mol/L.

Record CCCOc1ccccc1COc1ccsc1C(=O)Nc1cccnc1 [14g] , field pIC50: 4.31

Record CCCCCCCCCCCCOc1ccccc1COc1ccsc1C(=O)Nc1cccnc1 [14p] , field pIC50: 4.74

Record CCCCCCCCCCOc1ccccc1COc1ccsc1C(=O)Nc1cccnc1 [14n] , field pIC50: 4.89

Record O=C(Nc1cccnc1)c1sccc1OCc1cc(F)ccc1Cl [14d] , field pIC50: 3.99

Record CCOc1ccccc1COc1ccsc1C(=O)Nc1cccnc1 [14f] , field pIC50: 4.11

Record CCCCCCCCOc1c(Cl)cccc1COc1ccsc1C(=O)Nc1cccnc1 [14q] , field pIC50: 5.00

Record CCCCCCCCOc1ccccc1COc1ccsc1C(=O)Nc1cccnc1 [14l] , field pIC50: 4.80

Record CCCCCCOc1ccccc1COc1ccsc1C(=O)Nc1cccnc1 [14j] , field pIC50: 5.22

Record CCCCCCCCOc1ccc(Cl)cc1COc1ccsc1C(=O)Nc1cccnc1 [14r] , field pIC50: 5.10

Record CCCCOc1ccccc1COc1ccsc1C(=O)Nc1cccnc1 [14h] , field pIC50: 4.70

====

assay: in vivo; conditions: male, SD, rat, conjunctiva, topical or ocular, 16 ug
MEASUREMENT TYPE: Tmax (min)
The reply should be a number in min, with the unit left off.

Record CCCCCCCCOc1ccccc1COc1ccsc1C(=O)Nc1cccnc1 [14l] , field Tmax: 15

====

What LLE was measured for each of the following?
Target: human SMS2 (Homo sapiens, UniProt Q8NHU3)
Sequence (Q8NHU3 1-365): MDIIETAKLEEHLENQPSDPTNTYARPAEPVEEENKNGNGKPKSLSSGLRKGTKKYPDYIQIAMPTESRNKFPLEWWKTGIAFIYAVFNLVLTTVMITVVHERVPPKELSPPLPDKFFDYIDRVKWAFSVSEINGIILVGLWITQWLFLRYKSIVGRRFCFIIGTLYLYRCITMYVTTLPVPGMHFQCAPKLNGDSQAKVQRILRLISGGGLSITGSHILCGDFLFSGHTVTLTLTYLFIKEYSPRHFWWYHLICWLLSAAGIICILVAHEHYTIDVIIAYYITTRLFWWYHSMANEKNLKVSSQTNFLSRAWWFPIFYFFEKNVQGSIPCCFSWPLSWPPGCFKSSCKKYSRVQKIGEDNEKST
Test: purified SMS enzyme inhibitory assay in vitro
Assay type: biochemical
Details: pIC50, SMS2 – ClogP
Answer as a number with no unit attached.

So the reported LLE for CCCCOc1ccccc1COc1ccsc1C(=O)Nc1cccnc1 [14h] , on human SMS2 (Homo sapiens, UniProt Q8NHU3), turned out to be 3.14

So the reported LLE for CCCCCCCCOc1ccccc1COc1ccsc1C(=O)Nc1cccnc1 [14l] , on human SMS2 (Homo sapiens, UniProt Q8NHU3), turned out to be 2.21

So the reported LLE for COc1ccccc1COc1ccsc1C(=O)Nc1cccnc1 [14e] , on human SMS2 (Homo sapiens, UniProt Q8NHU3), turned out to be 4.04

So the reported LLE for "O=C(Nc1cccnc1)c1sccc1OCc1ccccc1" , on human SMS2 (Homo sapiens, UniProt Q8NHU3), turned out to be 3.33

So the reported LLE for CCCCCCCOc1ccccc1COc1ccsc1C(=O)Nc1cccnc1 [14k] , on human SMS2 (Homo sapiens, UniProt Q8NHU3), turned out to be 2.37

So the reported LLE for CCCCCCCCOc1c(Cl)cccc1COc1ccsc1C(=O)Nc1cccnc1 [14q] , on human SMS2 (Homo sapiens, UniProt Q8NHU3), turned out to be 1.83

So the reported LLE for CCCCCCCCOc1ccc(Cl)cc1COc1ccsc1C(=O)Nc1cccnc1 [14r] , on human SMS2 (Homo sapiens, UniProt Q8NHU3), turned out to be 1.01

So the reported LLE for O=C(Nc1cccnc1)c1sccc1OCc1cccc(Cl)c1 [14b] , on human SMS2 (Homo sapiens, UniProt Q8NHU3), turned out to be 3.02

So the reported LLE for CCCCCCCCCCOc1ccccc1COc1ccsc1C(=O)Nc1cccnc1 [14n] , on human SMS2 (Homo sapiens, UniProt Q8NHU3), turned out to be 1.39

So the reported LLE for "O=C(Nc1cccnc1F)c1sccc1OCc1ccccc1" , on human SMS2 (Homo sapiens, UniProt Q8NHU3), turned out to be 2.31

So the reported LLE for O=C(Nc1cccnc1)c1sccc1OCc1ccc(Cl)cc1 [14c] , on human SMS2 (Homo sapiens, UniProt Q8NHU3), turned out to be 0.75

So the reported LLE for CCCOc1ccccc1COc1ccsc1C(=O)Nc1cccnc1 [14g] , on human SMS2 (Homo sapiens, UniProt Q8NHU3), turned out to be 3.18

So the reported LLE for CCCCCCCCCCCOc1ccccc1COc1ccsc1C(=O)Nc1cccnc1 [14o] , on human SMS2 (Homo sapiens, UniProt Q8NHU3), turned out to be 0.98

====

Target: human SMS2 (Homo sapiens)
Sequence (Q8NHU3 1-365): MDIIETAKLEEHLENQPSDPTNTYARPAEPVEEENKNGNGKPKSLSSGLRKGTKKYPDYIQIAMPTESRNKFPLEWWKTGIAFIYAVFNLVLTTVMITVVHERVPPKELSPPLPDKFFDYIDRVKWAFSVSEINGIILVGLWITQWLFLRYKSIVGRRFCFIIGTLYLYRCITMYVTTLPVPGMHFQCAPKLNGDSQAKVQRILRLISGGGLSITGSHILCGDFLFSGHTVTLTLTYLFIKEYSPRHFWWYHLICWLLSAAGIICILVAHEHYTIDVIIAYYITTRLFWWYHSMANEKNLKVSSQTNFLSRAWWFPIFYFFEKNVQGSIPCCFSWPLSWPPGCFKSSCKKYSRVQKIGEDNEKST
Assay: purified SMS enzyme inhibitory assay in vitro
Format: biochemical
Conditions: IC50, SMS1/IC50, SMS2
What Selectivity ratio was measured for each of the following?

Record CCOc1ccccc1COc1ccsc1C(=O)Nc1cccnc1 [14f] , field Selectivity ratio: 1004

Record CCCCCCCCCOc1ccccc1COc1ccsc1C(=O)Nc1cccnc1 [14m] , field Selectivity ratio: 360

Record CCCCCCCCOc1ccc(Cl)cc1COc1ccsc1C(=O)Nc1cccnc1 [14r] , field Selectivity ratio: 70

Record CCCCCCCCOc1c(Cl)cccc1COc1ccsc1C(=O)Nc1cccnc1 [14q] , field Selectivity ratio: 649

====

assay: in vivo; conditions: male, SD, rat, cornea, topical or ocular, 16 ug
MEASUREMENT TYPE: half-life (h)
The reply should be a number in h, with the unit left off.

Record CCCCCCCCOc1ccccc1COc1ccsc1C(=O)Nc1cccnc1 [14l] , field half-life: 1.11

====

target: human SMS1 (Homo sapiens, UniProt Q86VZ5); experiment: purified SMS enzyme inhibitory assay in vitro; format: biochemical; conditions: read-out: SMS1 Inhibition @ 100 μmol/L (%)
Sequence (Q86VZ5 whole entry): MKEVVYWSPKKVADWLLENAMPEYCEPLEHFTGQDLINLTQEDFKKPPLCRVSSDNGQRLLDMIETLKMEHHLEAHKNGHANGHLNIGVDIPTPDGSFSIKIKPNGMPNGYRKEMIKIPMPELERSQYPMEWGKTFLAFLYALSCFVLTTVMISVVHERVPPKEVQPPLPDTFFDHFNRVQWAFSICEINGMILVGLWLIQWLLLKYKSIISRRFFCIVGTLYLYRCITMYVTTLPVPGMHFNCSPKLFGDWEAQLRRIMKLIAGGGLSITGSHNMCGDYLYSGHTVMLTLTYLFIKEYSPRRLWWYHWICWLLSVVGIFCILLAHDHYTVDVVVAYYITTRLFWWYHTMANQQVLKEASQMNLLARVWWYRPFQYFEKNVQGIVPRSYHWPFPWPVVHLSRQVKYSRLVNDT
What inhibition at 100 µM was measured for each of the following?
Param answer (str): number followed by unit.

Record CCCCCCCCCCOc1ccccc1COc1ccsc1C(=O)Nc1cccnc1 [14n] , field inhibition at 100 µM: 87%

Record CCCOc1ccccc1COc1ccsc1C(=O)Nc1cccnc1 [14g] , field inhibition at 100 µM: 74%

Record CCCCCCCCCCCOc1ccccc1COc1ccsc1C(=O)Nc1cccnc1 [14o] , field inhibition at 100 µM: 90%

Record CCOc1ccccc1COc1ccsc1C(=O)Nc1cccnc1 [14f] , field inhibition at 100 µM: 56%

Record CCCCCOc1ccccc1COc1ccsc1C(=O)Nc1cccnc1 [14i] , field inhibition at 100 µM: 88%

Record "O=C(Nc1ccc(F)nc1)c1sccc1OCc1ccccc1" , field inhibition at 100 µM: 57%

Record "O=C(Nc1cccnc1)c1sccc1OCc1ccc2ccccc2c1" , field inhibition at 100 µM: 42%

Record CCCCCCCCOc1c(Cl)cccc1COc1ccsc1C(=O)Nc1cccnc1 [14q] , field inhibition at 100 µM: 92%

Record "O=C(Nc1cnccc1Cl)c1sccc1OCc1ccccc1" , field inhibition at 100 µM: -39%

Record CCCCCCOc1ccccc1COc1ccsc1C(=O)Nc1cccnc1 [14j] , field inhibition at 100 µM: 93%

Record O=C(Nc1cccnc1)c1sccc1OCc1ccc(Cl)cc1 [14c] , field inhibition at 100 µM: 52%

Record "O=C(Nc1cccnc1)c1ncccc1OCc1ccccc1" , field inhibition at 100 µM: -18%

Record CCCCCCCOc1ccccc1COc1ccsc1C(=O)Nc1cccnc1 [14k] , field inhibition at 100 µM: 90%

Record "Cc1ccncc1NC(=O)c1sccc1OCc1ccccc1" , field inhibition at 100 µM: -17%

Record O=C(Nc1cccnc1)c1sccc1OCc1cc(F)ccc1Cl [14d] , field inhibition at 100 µM: 53%

Record "Cc1cc(OCc2ccccc2)c(C(=O)Nc2cccnc2)s1" , field inhibition at 100 µM: -14%

Record "O=C(Nc1cccnc1)c1sccc1OCc1c2ccccc2cc2ccccc12" , field inhibition at 100 µM: 5%

Record "O=C(Nc1cccnc1F)c1sccc1OCc1ccccc1" , field inhibition at 100 µM: 53%

Record CCCCCCCCCCCCOc1ccccc1COc1ccsc1C(=O)Nc1cccnc1 [14p] , field inhibition at 100 µM: 81%

Record "O=C(Nc1cccnn1)c1sccc1OCc1ccccc1" , field inhibition at 100 µM: 22%

Record CCCCCCCCOc1ccc(Cl)cc1COc1ccsc1C(=O)Nc1cccnc1 [14r] , field inhibition at 100 µM: 85%

Record "CCCCCCCCOc1ccsc1C(=O)Nc1cccnc1" , field inhibition at 100 µM: 67%

Record O=C(Nc1cccnc1)c1sccc1OCc1ccccc1Cl [14a] , field inhibition at 100 µM: 56%
